Origin of the recorded values: patent US20260092071A1

# measured on: SMARCA2 (Homo sapiens, UniProt P51531)
# Sequence (P51531 whole entry): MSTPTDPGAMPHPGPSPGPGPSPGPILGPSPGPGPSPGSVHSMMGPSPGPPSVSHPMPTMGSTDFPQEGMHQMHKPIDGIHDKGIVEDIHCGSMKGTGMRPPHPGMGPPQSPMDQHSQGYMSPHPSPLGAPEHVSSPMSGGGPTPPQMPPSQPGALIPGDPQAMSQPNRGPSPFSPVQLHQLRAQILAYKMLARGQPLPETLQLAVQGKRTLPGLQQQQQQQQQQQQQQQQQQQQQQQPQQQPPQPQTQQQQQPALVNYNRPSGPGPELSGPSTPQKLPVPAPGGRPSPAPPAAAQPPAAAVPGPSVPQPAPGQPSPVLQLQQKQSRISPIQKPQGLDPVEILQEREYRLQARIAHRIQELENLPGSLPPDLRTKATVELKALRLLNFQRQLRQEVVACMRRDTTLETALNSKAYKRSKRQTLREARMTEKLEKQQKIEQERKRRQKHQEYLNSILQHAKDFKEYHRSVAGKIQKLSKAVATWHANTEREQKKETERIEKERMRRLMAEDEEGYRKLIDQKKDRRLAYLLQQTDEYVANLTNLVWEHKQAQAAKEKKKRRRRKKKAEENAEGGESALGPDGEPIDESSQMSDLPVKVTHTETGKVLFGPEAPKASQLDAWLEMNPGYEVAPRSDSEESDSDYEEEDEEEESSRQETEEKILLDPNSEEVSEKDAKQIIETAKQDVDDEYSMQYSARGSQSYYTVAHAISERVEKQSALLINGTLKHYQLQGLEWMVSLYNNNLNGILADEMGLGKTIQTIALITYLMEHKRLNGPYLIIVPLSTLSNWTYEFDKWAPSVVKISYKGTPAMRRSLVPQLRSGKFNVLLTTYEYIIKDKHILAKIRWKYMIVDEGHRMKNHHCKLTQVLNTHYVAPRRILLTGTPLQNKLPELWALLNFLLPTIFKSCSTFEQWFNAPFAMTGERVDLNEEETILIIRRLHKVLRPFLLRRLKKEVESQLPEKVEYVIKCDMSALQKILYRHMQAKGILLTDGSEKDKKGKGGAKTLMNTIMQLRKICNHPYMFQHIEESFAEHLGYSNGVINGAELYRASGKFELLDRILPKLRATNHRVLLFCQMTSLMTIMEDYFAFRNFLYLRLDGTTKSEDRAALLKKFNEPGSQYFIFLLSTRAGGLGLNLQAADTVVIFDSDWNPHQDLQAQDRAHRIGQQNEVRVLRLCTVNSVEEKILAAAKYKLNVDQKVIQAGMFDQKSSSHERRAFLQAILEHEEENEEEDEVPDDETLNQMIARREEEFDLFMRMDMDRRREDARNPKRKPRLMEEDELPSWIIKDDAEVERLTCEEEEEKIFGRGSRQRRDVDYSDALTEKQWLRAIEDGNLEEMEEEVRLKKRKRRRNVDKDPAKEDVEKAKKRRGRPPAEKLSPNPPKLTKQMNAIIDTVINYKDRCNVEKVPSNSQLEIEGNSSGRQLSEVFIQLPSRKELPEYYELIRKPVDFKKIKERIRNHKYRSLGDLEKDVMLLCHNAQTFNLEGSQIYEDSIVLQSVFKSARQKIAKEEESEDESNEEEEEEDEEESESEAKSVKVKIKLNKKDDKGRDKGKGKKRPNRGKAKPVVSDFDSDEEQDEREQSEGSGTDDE
# assay name: HiBiT assay for protein degradation, Hela SMARCA2-HiBiT cells (A series)
# Format: cell-based
# Design: Hela cells were genetically modified via CRISPR/Cas9 to fuse HiBiT to the carboxy terminus of SMARCA2; host or cells: HeLa (CRISPR/Cas9 HiBiT knock-in)
# condition description: Hela SMARCA2-HiBiT cells, 24 hours treatment; read-out: SMARC A2 Hela HiBit DC50
endpoint name: DC50

# count of solved cases: 7
substance smiles	DC50
Cc1ncsc1-c1ccc([C@H](C)NC(=O)[C@@H]2C[C@@H](O)CN2C(=O)[C@@H](NC(=O)[C@H]2CC[C@H](CN3CCC(c4ccc5c(c4)C4(CCCCC4)c4nc(=O)c6c(Br)cccc6n4-5)CC3)CC2)C(C)(C)C)cc1	< 100 nM
Cc1ncccc1-c1ccc([C@H](CN2CCOCC2)NC(=O)[C@@H]2C[C@@H](O)CN2C(=O)[C@@H](n2cc([C@H]3CC[C@H](CN4CCC(c5ccc6c(c5)-n5c(nc(=O)c7c(Cl)cccc75)C65CCCCC5)CC4)CC3)nn2)C(C)(C)C)cc1	< 10 nM
Cc1ncsc1-c1ccc([C@H](C)NC(=O)[C@@H]2C[C@@H](O)CN2C(=O)[C@H](C2CCN(C(=O)CCCN3CCC(c4ccc5c(c4)-n4c(nc(=O)c6c(Cl)cccc64)C54CCCCC4)CC3)CC2)n2cc(C3CC3)nn2)cc1	100 to 1000 nM
Cc1nc(C)c(-c2ccc([C@H](CN3CCOCC3)NC(=O)[C@@H]3C[C@@H](O)CN3C(=O)[C@@H](n3cc([C@H]4CC[C@H](CN5CCC(c6ccc7c(c6)-n6c(nc(=O)c8c(Cl)cccc86)C76CCCCC6)CC5)CC4)nn3)C(C)(C)C)cc2)s1	< 10 nM
Cc1ncsc1-c1ccc([C@H](CNC(=O)[C@H]2CC[C@H](CN3CCC(c4ccc5c(c4)-n4c(nc(=O)c6c(Br)cccc64)C54CCCCC4)CC3)CC2)NC(=O)[C@@H]2C[C@@H](O)CN2C(=O)[C@@H](n2cc(C3CC3)nn2)C(C)(C)C)cc1	> 1000 nM
COCCOCCOCCOC[C@H](NC(=O)[C@@H]1C[C@@H](O)CN1C(=O)[C@@H](n1cc([C@H]2CC[C@H](CN3CCC(c4ccc5c(c4)-n4c(nc(=O)c6c(Cl)cccc64)C54CCCCC4)CC3)CC2)nn1)C(C)(C)C)c1ccc(-c2scnc2C)cc1	< 10 nM
Cc1ncsc1-c1ccc([C@H](CN2CCOCC2)NC(=O)[C@@H]2C[C@@H](O)CN2C(=O)[C@H](C2CCOCC2)n2cc([C@H]3CC[C@H](CN4CCC(c5ccc6c(c5)-n5c(nc(=O)c7c(Br)cccc75)C65CCCCC5)CC4)CC3)nn2)cc1	< 10 nM

Then there is this compound:
query: Entry "CC(=O)N1CCC([C@@H](C(=O)N2C[C@H](O)C[C@H]2C(=O)N[C@@H](C)c2ccc(-c3scnc3C)cc2)n2cc([C@H]3CC[C@H](CN4CCC(c5ccc6c(c5)-n5c(nc(=O)c7c(Cl)cccc75)C65CCCCC5)CC4)CC3)nn2)CC1" needs its DC50 filled in; supply it.
result: < 10 nM

###

# measured on: SMARCA4 (Homo sapiens, UniProt P51532)
# Sequence (P51532 whole entry): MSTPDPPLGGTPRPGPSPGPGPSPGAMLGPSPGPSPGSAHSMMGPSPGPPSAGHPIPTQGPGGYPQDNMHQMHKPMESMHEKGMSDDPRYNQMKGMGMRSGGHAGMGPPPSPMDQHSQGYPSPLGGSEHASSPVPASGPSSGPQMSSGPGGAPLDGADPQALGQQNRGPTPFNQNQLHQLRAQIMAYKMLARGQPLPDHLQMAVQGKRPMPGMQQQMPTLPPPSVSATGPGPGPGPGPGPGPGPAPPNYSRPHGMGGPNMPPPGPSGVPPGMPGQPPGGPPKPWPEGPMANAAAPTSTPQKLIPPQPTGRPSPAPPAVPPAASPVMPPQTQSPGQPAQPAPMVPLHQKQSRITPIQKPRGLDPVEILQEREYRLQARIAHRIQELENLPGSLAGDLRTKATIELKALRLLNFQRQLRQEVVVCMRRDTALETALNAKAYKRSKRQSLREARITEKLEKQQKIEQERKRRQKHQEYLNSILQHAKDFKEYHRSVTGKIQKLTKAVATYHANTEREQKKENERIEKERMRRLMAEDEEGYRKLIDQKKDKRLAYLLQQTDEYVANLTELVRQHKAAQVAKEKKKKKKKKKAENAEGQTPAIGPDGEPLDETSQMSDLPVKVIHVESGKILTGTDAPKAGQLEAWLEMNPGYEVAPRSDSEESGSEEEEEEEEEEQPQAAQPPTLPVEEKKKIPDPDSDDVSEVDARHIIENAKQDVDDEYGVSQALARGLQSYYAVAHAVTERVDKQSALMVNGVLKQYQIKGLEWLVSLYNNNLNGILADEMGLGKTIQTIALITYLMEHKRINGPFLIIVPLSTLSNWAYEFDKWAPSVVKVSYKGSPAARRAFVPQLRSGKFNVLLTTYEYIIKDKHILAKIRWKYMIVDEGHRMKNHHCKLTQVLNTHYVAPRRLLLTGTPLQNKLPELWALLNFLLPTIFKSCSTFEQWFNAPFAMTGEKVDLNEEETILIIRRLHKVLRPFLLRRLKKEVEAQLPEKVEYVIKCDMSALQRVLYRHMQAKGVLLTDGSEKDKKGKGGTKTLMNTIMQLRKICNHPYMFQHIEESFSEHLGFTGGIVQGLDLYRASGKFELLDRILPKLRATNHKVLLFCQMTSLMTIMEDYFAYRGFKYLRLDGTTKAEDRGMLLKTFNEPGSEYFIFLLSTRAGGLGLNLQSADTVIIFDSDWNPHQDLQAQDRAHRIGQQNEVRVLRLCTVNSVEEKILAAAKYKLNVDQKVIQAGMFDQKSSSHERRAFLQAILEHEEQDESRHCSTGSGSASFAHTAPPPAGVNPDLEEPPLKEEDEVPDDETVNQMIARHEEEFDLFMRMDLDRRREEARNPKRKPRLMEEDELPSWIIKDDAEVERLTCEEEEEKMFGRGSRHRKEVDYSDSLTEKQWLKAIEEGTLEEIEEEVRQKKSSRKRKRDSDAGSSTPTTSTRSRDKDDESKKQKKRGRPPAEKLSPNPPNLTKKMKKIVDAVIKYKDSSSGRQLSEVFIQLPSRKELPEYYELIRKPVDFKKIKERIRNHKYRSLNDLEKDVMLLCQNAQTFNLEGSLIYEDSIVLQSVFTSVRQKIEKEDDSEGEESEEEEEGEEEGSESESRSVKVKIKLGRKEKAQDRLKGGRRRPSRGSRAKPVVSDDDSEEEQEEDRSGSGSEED
# assay name: HiBit assay in engineered HT1080 CRISPR knock-in cell, 6 hrs (B series), SMARCA4
# Assay type: cell-based
# condition description: HT1080 CRISPR knock-in cells, 6 hrs incubation; read-out: SMARC A4 HT1080 HiBit DC50
endpoint name: DC50

compound	meas value
Cc1ncsc1-c1ccc([C@H](C)NC(=O)[C@@H]2C[C@@H](O)CN2C(=O)[C@@H](NC(=O)CCCn2cc(-c3ccc4c(c3)C(C)(C)c3nc(=O)c5c(Cl)cccc5n3-4)cn2)C(C)(C)C)cc1 [Compound B93]	0.1 to 0.5 µM
Cc1ncsc1-c1ccc([C@H](C)NC(=O)[C@@H]2C[C@@H](O)CN2C(=O)[C@@H](n2cc(CN3CCC(c4ccc5c(c4)-n4c(nc(=O)c6c(Cl)cccc64)C5(C)C)CC3)nn2)C(C)(C)C)cc1 [Compound B69]	0.1 to 0.5 µM
Cc1ncsc1-c1ccc([C@H](C)NC(=O)[C@@H]2C[C@@H](O)CN2C(=O)[C@H](C(C)C)n2cc(OCCN3CCC(c4ccc5c(c4)C(C)(C)c4nc(=O)c6c(Cl)cccc6n4-5)CC3)cn2)cc1 [Compound B57]	0.501 to 1 µM

Then there is this compound:
query: Jot down DC50 (SMARCA4 (Homo sapiens, UniProt P51532)) of Cc1ncsc1-c1ccc([C@H](C)NC(=O)[C@@H]2C[C@@H](O)CN2C(=O)[C@@H](c2cc(OCCn3cc(-c4ccc5c(c4)-n4c(nc(=O)c6c(Cl)cccc64)C5(C)C)cn3)no2)C(C)C)cc1 [Compound B60] .
result: < 0.1 µM

###

# measured on: SMARCA4 (Homo sapiens, UniProt P51532)
# assay name: HiBiT assay for protein degradation, Hela SMARCA4-HiBiT cells (A series)
# Assay type: cell-based
# Set-up: fuse HiBiT to the carboxy terminus of SMARCA2 (Promega CS302365) or SMARCA4 (Promega CS3023225); host or cells: HeLa (CRISPR/Cas9 HiBiT knock-in)
# condition description: Hela SMARCA4-HiBiT cells, 24 hours treatment; read-out: SMARC A4 Hela HiBit Dmax
endpoint name: Dmax

substance smiles	endpoint name	meas value
COCCOCCOC[C@H](NC(=O)[C@@H]1C[C@@H](O)CN1C(=O)[C@@H](n1cc([C@H]2CC[C@H](CN3CCC(c4ccc5c(c4)-n4c(nc(=O)c6c(Cl)cccc64)C5(C)C)CC3)CC2)nn1)C(C)(C)C)c1ccc(-c2scnc2C)cc1	Dmax	< 50%

query: Jot down Dmax (SMARCA4 (Homo sapiens, UniProt P51532)) of "Cc1ncsc1-c1ccc([C@H](CN2CCOCC2)NC(=O)[C@@H]2C[C@@H](O)CN2C(=O)[C@H](C2CCOCC2)n2cc([C@H]3CC[C@H](CN4CCC(c5ccc6c(c5)-n5c(nc(=O)c7c(Cl)cccc75)C6(C)C)CC4)CC3)nn2)cc1" .
result: 50 to 69%

###

Catalogue of DC50 values
# measured on: SMARCA4 (Homo sapiens, UniProt P51532)
# assay name: HiBit assay in engineered HT1080 CRISPR knock-in cell, 6 hrs (B series), SMARCA4
# Format: cell-based
# condition description: HT1080 CRISPR knock-in cells, 6 hrs incubation; read-out: SMARC A4 HT1080 HiBit DC50

# count of solved cases: 6
substance smiles	DC50
Cc1ncsc1-c1ccc([C@H](CN2CCOCC2)NC(=O)[C@@H]2C[C@@H](O)CN2C(=O)[C@H](C(C)C)n2cc([C@H]3CC[C@H](CN4CCC(c5ccc6c(c5)-n5c(nc(=O)c7c(Br)cccc75)C65CCCCC5)CC4)CC3)nn2)cc1	< 100 nM
Cc1ncsc1-c1ccc([C@H](C)NC(=O)[C@@H]2C[C@@H](O)CN2C(=O)[C@@H](c2cc(OCCn3cc(-c4ccc5c(c4)C(C)(C)c4nc(=O)c6c(Cl)cccc6n4-5)cn3)no2)C(C)C)cc1	> 1000 nM
C[C@H](NC(=O)[C@@H]1C[C@@H](O)CN1C(=O)[C@@H](n1cc([C@H]2CC[C@H](CN3CCC(c4ccc5c(c4)-n4c(nc(=O)c6c(Cl)cccc64)C5(C)C)CC3)CC2)nn1)C(C)(C)C)c1ccc(-c2scnc2Cl)cc1	100 to 500 nM
Cc1ncsc1-c1ccc([C@H](C)NC(=O)[C@@H]2C[C@@H](O)CN2C(=O)[C@@H](NC(=O)C23CCC(CN4CCC(c5ccc6c(c5)C(C)(C)c5nc(=O)c7c(Cl)cccc7n5-6)CC4)(CC2)C3)C(C)(C)C)cc1	< 100 nM
Cc1ncsc1-c1ccc([C@H](CN2CCOCC2)NC(=O)[C@@H]2C[C@@H](O)CN2C(=O)[C@@H](c2cc(O[C@H]3CC[C@H](CN4CCC(c5ccc6c(c5)-n5c(nc(=O)c7c(Cl)cccc75)C65CCCCC5)CC4)CC3)no2)C(C)C)cc1	< 100 nM
Cc1ncsc1-c1ccc([C@H](C)NC(=O)[C@@H]2C[C@@H](O)CN2C(=O)[C@@H](c2cc(OCC3(CN4CCC(c5ccc6c(c5)C(C)(C)c5nc(=O)c7c(Cl)cccc7n5-6)CC4)CC3)no2)C(C)C)cc1	< 100 nM

query: Entry "Cc1ncsc1-c1ccc([C@H](C)NC(=O)[C@@H]2C[C@@H](O)CN2C(=O)[C@@H](c2cc(OCCCn3cc(-c4ccc5c(c4)-n4c(nc(=O)c6c(Cl)cccc64)C5(C)C)cn3)no2)C(C)C)cc1" needs its DC50 filled in; supply it.
result: < 100 nM

query: Entry "Cc1ncsc1-c1ccc([C@H](C)NC(=O)[C@@H]2C[C@@H](O)CN2C(=O)[C@@H](c2cc(N3CCC(C(=O)N4CCC(c5ccc6c(c5)C(C)(C)c5nc(=O)c7c(Cl)cccc7n5-6)CC4)CC3)no2)C(C)C)cc1" needs its DC50 filled in; supply it.
result: < 100 nM
